B1: LINE1-mini (parent)
chain: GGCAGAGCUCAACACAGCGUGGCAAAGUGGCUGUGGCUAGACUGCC

- Variants of: B1
- assay_details: self-cleavage, relative activity (ratio to wild type); higher = more cleavage; in vitro, sequencing; the parent is a self-cleaving ribozyme
assay_readout: self-cleavage

A25C G27C :: 0.39
U34A C45G :: 0.15
A11C C23G :: 0.06

# batch size: 6; output self-cleavage per entry
1. A11G U32C
2. C3G G5C
3. A11G G40U
4. U34G G36U
5. A6U A41C
6. G2C G22U

Ans.
0.04
0.58
0.03
0.11
0.07
0.23

// batch mode: one self-cleavage value per listed entry
1. C15A G30C
2. G1U U38G
3. G19U G40A
4. U43C C45U
5. U20C G27C

Ans.
1: 0.05; 2: 0.03; 3: 0.08; 4: 0.13; 5: 0.28
